Molecular target: Prostaglandin G/H synthase 2 (Homo sapiens, UniProt P35354)
Sequence (P35354 whole entry): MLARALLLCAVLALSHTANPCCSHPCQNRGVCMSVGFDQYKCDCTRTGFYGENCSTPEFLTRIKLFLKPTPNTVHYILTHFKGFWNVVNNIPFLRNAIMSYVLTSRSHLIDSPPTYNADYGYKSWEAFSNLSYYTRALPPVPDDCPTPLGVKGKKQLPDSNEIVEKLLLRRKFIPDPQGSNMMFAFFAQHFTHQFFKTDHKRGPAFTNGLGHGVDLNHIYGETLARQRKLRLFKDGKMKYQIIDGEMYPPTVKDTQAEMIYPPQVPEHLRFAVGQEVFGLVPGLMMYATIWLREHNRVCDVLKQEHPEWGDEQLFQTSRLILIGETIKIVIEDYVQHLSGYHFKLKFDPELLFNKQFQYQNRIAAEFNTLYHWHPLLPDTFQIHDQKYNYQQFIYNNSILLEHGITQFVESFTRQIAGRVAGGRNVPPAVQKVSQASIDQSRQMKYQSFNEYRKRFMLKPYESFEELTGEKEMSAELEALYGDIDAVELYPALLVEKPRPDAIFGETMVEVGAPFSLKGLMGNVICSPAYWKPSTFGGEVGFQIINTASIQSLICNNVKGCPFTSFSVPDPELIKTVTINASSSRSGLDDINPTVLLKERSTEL
Test: Inhibition of COX2 in Homo sapiens (human) whole blood
We begin with a simple list: items and their reported pIC50.
Give only the number. pIC50 is defined as minus log10 of concentration in molar units.

compound="CS(=O)(=O)c1ccc(-c2nc(NC3CC=CCC3)cc(C(F)(F)F)n2)cc1 (centres undefined)" reported_value=7.48
compound=CS(=O)(=O)c1ccc(-c2nc(NCCCc3cccs3)cc(C(F)(F)F)n2)cc1 reported_value=5.92
compound=Cn1cccc1CCCNc1cc(C(F)(F)F)nc(-c2ccc(S(C)(=O)=O)cc2)n1 reported_value=5.40

The record that follows has no pIC50 shown yet.
Request - read-out pIC50 | tested on Prostaglandin G/H synthase 2 (Homo sapiens, UniProt P35354) | compound NS(=O)(=O)c1ccc(-c2nc(NCc3ccccc3)cc(C(F)(F)F)n2)cc1
5.48
